- EXPERIMENTAL SYSTEM: Histone deacetylase 1 (Homo sapiens, UniProt Q13547)
- Sequence (Q13547 whole entry): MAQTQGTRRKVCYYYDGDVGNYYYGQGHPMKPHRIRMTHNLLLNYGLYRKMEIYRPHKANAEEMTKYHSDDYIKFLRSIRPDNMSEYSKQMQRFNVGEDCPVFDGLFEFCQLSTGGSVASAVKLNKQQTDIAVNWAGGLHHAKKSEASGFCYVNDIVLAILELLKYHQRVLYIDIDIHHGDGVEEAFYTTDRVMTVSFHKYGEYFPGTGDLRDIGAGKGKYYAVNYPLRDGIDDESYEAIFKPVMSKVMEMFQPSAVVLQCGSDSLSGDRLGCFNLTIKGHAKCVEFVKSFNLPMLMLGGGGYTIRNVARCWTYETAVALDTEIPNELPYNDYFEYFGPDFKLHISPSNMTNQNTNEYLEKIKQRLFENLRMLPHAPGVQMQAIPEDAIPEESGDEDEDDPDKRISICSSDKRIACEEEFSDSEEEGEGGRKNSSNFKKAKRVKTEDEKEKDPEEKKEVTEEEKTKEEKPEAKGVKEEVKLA
- ASSAY METHOD TEXT: Inhibition of recombinant human HDAC1 using Z-(Ac)-Lys-AMC as substrate incubated for 40 mins by fluorescence based assay
pIC50: −log10 of the molar value.
MEASUREMENT TYPE: pIC50

- SMILES REPRESENTATION: "O=C(NO)c1ccc(NCc2nc(-c3cccc(Cl)c3)nn2-c2ccccc2)cc1"
  MEASUREMENT TYPE: "pIC50"
  QUANTITATIVE RESULT: 5.73
- SMILES REPRESENTATION: "COc1ccc(-c2nc(CNc3ccc(C(=O)NO)cc3)n(-c3ccccc3)n2)cc1"
  MEASUREMENT TYPE: "pIC50"
  QUANTITATIVE RESULT: 5.54
- SMILES REPRESENTATION: "O=C(NO)c1ccc(NCc2nc(-c3ccccc3)nn2-c2ccc(F)cc2)cc1"
  MEASUREMENT TYPE: "pIC50"
  QUANTITATIVE RESULT: 5.74
- SMILES REPRESENTATION: "O=C(NO)c1ccc(NCc2nc(-c3cccs3)nn2-c2ccc(O)cc2)cc1"
  MEASUREMENT TYPE: "pIC50"
  QUANTITATIVE RESULT: 5.82
- SMILES REPRESENTATION: "O=C(NO)c1ccc(NCc2nc(-c3ccccc3)nn2-c2ccccc2Cl)cc1"
  MEASUREMENT TYPE: "pIC50"
  QUANTITATIVE RESULT: 5.51
- SMILES REPRESENTATION: "Cc1ccsc1-c1nc(CNc2ccc(C(=O)NO)cc2)n(-c2ccccc2)n1"
  MEASUREMENT TYPE: "pIC50"
  QUANTITATIVE RESULT: 5.49
- SMILES REPRESENTATION: "O=C(NO)c1ccc(NCc2nc(-c3ccccc3)nn2-c2cccc(Cl)c2)cc1"
  MEASUREMENT TYPE: "pIC50"
  QUANTITATIVE RESULT: 5.36
- SMILES REPRESENTATION: "O=C(NO)c1ccc(NCc2nc(-c3sccc3Br)nn2-c2ccccc2)cc1"
  MEASUREMENT TYPE: "pIC50"
  QUANTITATIVE RESULT: 5.68
- SMILES REPRESENTATION: "Cc1ccc(-n2nc(-c3ccccc3)nc2CNc2ccc(C(=O)NO)cc2)cc1"
  MEASUREMENT TYPE: "pIC50"
  QUANTITATIVE RESULT: 5.77
- SMILES REPRESENTATION: "O=C(NO)c1ccc(NCc2nc(-c3ccccc3)nn2-c2ccc(Br)cc2)cc1"
  MEASUREMENT TYPE: "pIC50"
  QUANTITATIVE RESULT: 5.49

----------
- EXPERIMENTAL SYSTEM: Protein deacetylase HDAC6 (Homo sapiens)
- Sequence (Q9UBN7 whole entry): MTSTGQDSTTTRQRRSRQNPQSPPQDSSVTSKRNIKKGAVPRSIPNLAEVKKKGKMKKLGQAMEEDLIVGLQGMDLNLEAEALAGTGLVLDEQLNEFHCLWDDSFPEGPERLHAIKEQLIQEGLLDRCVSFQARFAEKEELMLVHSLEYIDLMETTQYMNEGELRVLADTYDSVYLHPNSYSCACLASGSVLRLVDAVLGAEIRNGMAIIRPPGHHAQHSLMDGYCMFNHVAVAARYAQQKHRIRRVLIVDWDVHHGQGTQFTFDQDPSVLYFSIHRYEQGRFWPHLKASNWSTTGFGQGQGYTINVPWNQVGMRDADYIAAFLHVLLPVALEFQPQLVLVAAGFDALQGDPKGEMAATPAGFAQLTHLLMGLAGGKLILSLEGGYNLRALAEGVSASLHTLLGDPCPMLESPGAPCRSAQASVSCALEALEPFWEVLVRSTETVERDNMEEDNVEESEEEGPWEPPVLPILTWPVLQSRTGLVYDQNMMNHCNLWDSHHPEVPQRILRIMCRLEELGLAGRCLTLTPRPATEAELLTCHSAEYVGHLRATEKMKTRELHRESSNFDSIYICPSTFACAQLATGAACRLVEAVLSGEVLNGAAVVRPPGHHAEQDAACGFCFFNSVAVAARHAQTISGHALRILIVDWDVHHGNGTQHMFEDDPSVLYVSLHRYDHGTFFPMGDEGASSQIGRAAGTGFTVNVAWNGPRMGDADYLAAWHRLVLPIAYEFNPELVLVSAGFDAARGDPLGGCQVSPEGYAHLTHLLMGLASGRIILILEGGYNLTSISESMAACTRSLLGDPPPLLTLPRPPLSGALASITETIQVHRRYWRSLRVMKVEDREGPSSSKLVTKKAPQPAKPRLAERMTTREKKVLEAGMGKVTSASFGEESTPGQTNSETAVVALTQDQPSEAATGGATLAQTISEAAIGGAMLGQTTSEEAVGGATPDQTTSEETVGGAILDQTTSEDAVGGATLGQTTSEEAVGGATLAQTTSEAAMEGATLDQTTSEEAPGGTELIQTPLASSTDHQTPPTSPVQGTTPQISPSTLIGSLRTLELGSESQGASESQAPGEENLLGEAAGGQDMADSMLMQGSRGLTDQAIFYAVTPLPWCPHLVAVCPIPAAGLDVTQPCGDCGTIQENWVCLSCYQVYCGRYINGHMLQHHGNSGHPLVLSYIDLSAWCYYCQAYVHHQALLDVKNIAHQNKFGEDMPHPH
- ASSAY METHOD TEXT: Binding affinity to recombinant human HDAC6 by BLI assay
MEASUREMENT TYPE: Kd (nM)

- SMILES REPRESENTATION: "Cc1ccc(-c2nc(CNc3ccc(C(=O)NO)cc3)n(-c3ccccc3)n2)s1"
  QUANTITATIVE RESULT: 7.1
